# subjectOfTest: acyl coenzyme-A:cholesterol-O-acyl transferase (ACAT; EC 2.3.1.26) (Rattus norvegicus)
# Construct: microsomes obtained from the livers of rats
# Sequence (Q7TQM4 1-524): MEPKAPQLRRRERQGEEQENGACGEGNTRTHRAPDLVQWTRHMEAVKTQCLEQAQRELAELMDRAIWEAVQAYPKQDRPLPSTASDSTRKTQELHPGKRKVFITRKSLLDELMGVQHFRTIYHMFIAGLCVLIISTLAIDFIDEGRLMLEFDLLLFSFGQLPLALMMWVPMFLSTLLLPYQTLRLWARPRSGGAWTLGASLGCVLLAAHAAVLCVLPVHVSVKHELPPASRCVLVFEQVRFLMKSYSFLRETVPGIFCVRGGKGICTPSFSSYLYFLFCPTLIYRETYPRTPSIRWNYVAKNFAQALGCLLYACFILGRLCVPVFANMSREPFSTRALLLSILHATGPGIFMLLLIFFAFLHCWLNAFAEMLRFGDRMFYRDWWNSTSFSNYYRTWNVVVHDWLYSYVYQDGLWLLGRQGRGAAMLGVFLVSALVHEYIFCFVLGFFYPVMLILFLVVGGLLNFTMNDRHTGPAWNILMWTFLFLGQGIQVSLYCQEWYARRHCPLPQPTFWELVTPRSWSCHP
# assayMethodText: In vitro inhibition of acyl coenzyme-A:cholesterol-O-acyl transferase (ACAT) in liver microsomes of cholesterol/cholic acid-fed rats
# experimentalSetup: microsomes from livers of rats fed a diet containing 0.5% w/w cholesterol and 0.25% w/w cholic acid
IC50 by entry:
Write the number in µM without appending the unit.

>>> value("CO[C@H]1C[C@H](O)C[C@@H](CSc2nc(-c3ccccc3)c(-c3ccccc3)[nH]2)O1")
0.091

Now examine the next entry.
In: Let me know recorded IC50 for CO[C@@H]1C[C@H](O)C[C@@H](CSc2nc(-c3ccccc3)c(-c3ccccc3)[nH]2)O1 , thanks.
Out: 0.05
